// data source = PubChem BioAssay (NCI)

Test: NCI Yeast Anticancer Drug Screen. Data for the bub3 strain (AID 167)
Details: S. cerevisiae bub3 mutant strain, at 50.0 µM
About 79,000 compounds went through this panel and 15% of them were active in at least one assay; those are over-represented in the sample as a whole. Active and inactive are the calls of the source. No stated cut-off is given here; in the data, active means growth inhibition above about 70%; inactive means the rest.
Would you mind answering with one of these outcomes? active, inactive

>  <compound>
O=C(O)/C=C\C(=O)Nc1ccccc1Cl

>  <class label>
inactive

$$$$

input: Please share the test call associated with `Cc1nc2cccc([N+](=O)[O-])c2n1CCCN(C)C` .
output: inactive

input: Entry `O=C(O)CCC(CCC(=O)O)(C(=O)O)c1ccccc1` : call = ?
output: inactive

input: Status in this test for CCNC(=O)OCCN1C(=O)C2C3CCC(O3)C2C1=O (centres undefined) ?
output: inactive

----------
The following compounds are listed with their measured growth inhibition values.
Assay: NCI Yeast Anticancer Drug Screen. Data for the rad50 strain (AID 155);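 further: 0% = growth of vehicle-only cultures of the same strain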
Details: S. cerevisiae rad50 strain growth inhibition; at 50.0 µM; hits give high values
This is part of a sample that, as a whole, favours compounds with a hit. Of some 79,000 tested, about 15% had one in any assay.
Quick reminder: number only, in %, skip the unit.

>  <compound>
C=CCCCCCCCCC(=O)NCC1CC1

>  <growth inhibition [%]>
-10.8

$$$$
>  <compound>
COc1ccc(C(c2cc3c(cc2O)OCO3)N2CCOCC2)c(OC)c1 (stereo not drawn)

>  <growth inhibition [%]>
-75.2

$$$$
>  <compound>
COc1ccc(NC(=S)N=Nc2c(O)[nH]c3ccccc23)cc1

>  <growth inhibition [%]>
-43.2

$$$$
>  <compound>
CCOC(=O)/C(=C\c1ccccc1)c1nc2ccccc2[nH]1

>  <growth inhibition [%]>
-1.2

$$$$
>  <compound>
CC(C)c1cccc(C(C)C)c1NC(=O)C(=O)C1SC(=S)NC1=O (stereo not drawn)

>  <growth inhibition [%]>
-23.6

$$$$

input: What does the data say about its growth inhibition? Entry: `C/C(=C/c1c(C)[nH]c(=O)[nH]c1=O)C(=O)O`
output: 10.9

input: Which growth inhibition value is on record for `COC(=O)c1c(-c2ccc(OC)c(OC)c2)cn(C)c1C` ?
output: 19.4

input: Look up growth inhibition for this compound: `CCOc1ccc(C2=C/C(=C/c3cccs3)C(=O)O2)cc1`
output: 4.2

input: Data request, read-out growth inhibition, for `O=c1cc(Nc2ccccc2Cl)[nH]c(=O)[nH]1`
output: 9.8

input: What does the record list as growth inhibition for `CC1=[N+]([O-])C2(CCCC2)N(O)C1(C)C` ?
output: -13.8

input: Fill blank: measured growth inhibition of the compound `Cc1ccc2ccccc2c1[N+](=O)[O-]` is ____.
output: 43.5

input: I am curious: what growth inhibition value has been reported for `[N-]=[N+]=Nc1ccccc1C(=O)NCCCNC(=O)c1ccccc1N=[N+]=[N-]` ?
output: -0.25

input: What does the record list as growth inhibition for `C/C(=N\N=C(/C)c1ccc(Br)s1)c1ccc(Br)s1` ?
output: -42.5

----------
Assay: NCI Yeast Anticancer Drug Screen. Data for the bub3 strain (AID 167)
Conditions: S. cerevisiae bub3 mutant strain, at 50.0 µM, hits give high values
About 79,000 compounds went through this panel and 15% of them were active in at least one assay; those are over-represented in the sample as a whole.
parameter measured: growth inhibition (%)
Numbers only; they are read as %.

Past entries and their recorded results:
>  <compound>
COC1CC(OC(=O)c2ccccc2)C(OC(=O)c2ccccc2)C(CBr)O1 (stereo not given)

>  <value units>
%

>  <recorded value>
80.1

$$$$
>  <compound>
Nc1nc(=S)c2ncn(C3OC(COC(=O)c4ccc([N+](=O)[O-])cc4)C(OC(=O)c4ccc([N+](=O)[O-])cc4)C3OC(=O)c3ccc([N+](=O)[O-])cc3)c2[nH]1 (stereo not given)

>  <value units>
%

>  <recorded value>
-5.65

$$$$
>  <compound>
O=C1c2ccccc2C(C2N=Nc3ccccc32)c2ccccc21 (stereo not given)

>  <value units>
%

>  <recorded value>
3.8

$$$$
>  <compound>
c1ccc2c(c1)[nH]c1ccncc12

>  <value units>
%

>  <recorded value>
-9.7

$$$$

input: Entry O=C(CCCCCCCC(=O)OC(CCC1CCCO1)CCC1CCCO1)OC(CCC1CCCO1)CCC1CCCO1 (stereo not given) has what growth inhibition?
output: -6.5

input: State the recorded growth inhibition for this entry: `COc1ccc(NC(C)=O)c(C(=O)CCNC(C)=O)c1`
output: -40

input: Consider the compound `N#CC(=NCCO)C1=C(O)c2ccccc2C1=O` and give its measured growth inhibition.
output: -48

input: Form field: reported growth inhibition of `CCCCSC(N)=O`
output: 17.3

input: What value of measured growth inhibition is listed for CC(c1ccccc1)n1cnc2c(=S)nc[nH]c21 (stereo not given) ?
output: -5.85

input: Would you kindly share the measured growth inhibition for CNC1C(=O)C(C)C(O)(C(CC(C)C(O)/C=C/C=C/CNC(=O)C(C)(C)C(O)\C(C)=C/C=C\C=C\Cc2cnc(C)o2)OC)C12C(=O)OC2COC (stereo not given) (tested in a mixture with another compound) ?
output: 12.9

input: Reported growth inhibition, compound O/N=C1/CC2(N3CCOCC3)C3CC/C(=N\O)C2CC1(Cc1ccccc1)C3 (stereo not given) : ____
output: -11.2

input: Any idea what its growth inhibition is? The compound is `O=C(N/N=C/c1cccc(F)c1)c1ccncc1`
output: -0.35

input: Entry under review: `C=CCOC(=O)c1cccc(C)c1` . Reported growth inhibition?
output: 9.9

input: For the compound shown here, `Cc1ccncc1.[O]=[Ge].[O]=[Ge].[O]=[Ge].[O]=[Ge].[O]=[Ge].[O]=[Ge][OH].[O]=[Ge][OH]` , give the reported growth inhibition.
output: -24.8

input: GET /values?readout=growth inhibition&item= CC(C)CC(CCl)Cc1nc2ccccc2[nH]1 (stereo not given)
output: 33.6

input: Entry `CCOC(OCC)n1ncnc1NC(=S)NCc1ccccc1` : reported growth inhibition = ?
output: -5.85

input: Which growth inhibition is listed for `CC(=O)Nc1ccccc1OC(=O)c1ccccc1` ?
output: 1.8

input: What value of growth inhibition has been reported for the following compound? `CCc1ccccc1N1C(=O)C(=O)C(c2nc3ccccc3s2)C(=O)C1=O`
output: 2.3

input: # get_value(readout='growth inhibition', item= `O=S1(=O)C=C(N2CCCCC2)c2ccccc21` )
output: -52

input: Endpoint output: growth inhibition of `CCOC(=O)N1CCc2cc(OC)c(OC)c3c2c1cc1cc(OC)c(OC)cc13` . Value?
output: 16.1
